Assay: Therapeutic index, ratio of CC50 for human HuH7 cells to EC50 for HCV genotype 1b infected in human Huh7 cells
Conditions: huh-7
Each entry below carries its reported selectivity ratio.

These recorded examples may help you get a feel for the data.
O=C(/C=C/c1ccccc1)NO: 45
O=C(/C=C/c1cccc(S(=O)(=O)Nc2ccccc2)c1)NO: 6

Could you now look at the following molecule, please?
Quick check: selectivity ratio of Nc1ccccc1NC(=O)c1ccc(CNC(=O)OCc2cccnc2)cc1 ?
4

----------
Test: Cytotoxicity against human HuH7 cells assessed as inhibition of cell viability at 10 uM after 3 days by CellTiter 96 assay
Assay type: cell-based, Huh-7
Conditions: read-out: INH
Kind request: treat 1% as inclusive, so cytotoxicity at 72 h, 10 µM at 1% or higher is TRUE, anything lower is FALSE.

O=C(/C=C/c1ccncc1)NO: FALSE

# check: cytotoxicity at 72 h, 10 µM of O=C(/C=C/c1cccc(C(F)(F)F)c1)NO is greater than or equal to 1%
TRUE

Textbook exercise: given the entry COc1ccc(/C=C/C(=O)NO)cc1 , state whether its cytotoxicity at 72 h, 10 µM is greater than or equal to 1%.
FALSE

Quick check: does CN1CCc2c(c3ccccc3n2Cc2ccc(C(=O)NO)cc2)C1 have cytotoxicity at 72 h, 10 µM greater than or equal to 1%?
TRUE

Decide: cytotoxicity at 72 h, 10 µM of CS(=O)(=O)c1ccc(/C=C/C(=O)NO)cc1 >= 1%?
FALSE

# bool: cytotoxicity at 72 h, 10 µM of O=C(/C=C/c1cccnc1)NO >= 1%
TRUE

Quick check, cytotoxicity at 72 h, 10 µM >= 1%? O=C(/C=C/c1ccccc1C(F)(F)F)NO
TRUE

Does cytotoxicity at 72 h, 10 µM meet or surpass 1% for O=C(NO)c1cc2ccccc2n1Cc1ccccc1 ?
TRUE

Given the entry N#Cc1ccc(/C=C/C(=O)NO)cc1 , answer whether its cytotoxicity at 72 h, 10 µM meets or surpasses 1%.
TRUE

For this compound, is measured cytotoxicity at 72 h, 10 µM 1% or higher? O=C(O)c1sc2ccccc2c1S(=O)(=O)c1ccccc1
TRUE

State whether the measured cytotoxicity at 72 h, 10 µM reaches 1%, counting equality as reaching it, for O=C(NO)c1cc2ccc(C(F)(F)F)cc2s1
TRUE

State whether the measured cytotoxicity at 72 h, 10 µM reaches 1%, counting equality as reaching it, for Cc1ccc(/C=C/C(=O)NO)cc1
FALSE

Given O=C(C=C(c1ccccc1)c1ccccc1)NO , state whether its cytotoxicity at 72 h, 10 µM is at least 1%.
TRUE

Values were extracted from ChEMBL document CHEMBL3392986.
